This collection of values is drawn from patent US20220089578A1.

# pEC50 per entry
- Measured on: human GLP-1R (Homo sapiens, UniProt P43220)
- Sequence (P43220 24-463): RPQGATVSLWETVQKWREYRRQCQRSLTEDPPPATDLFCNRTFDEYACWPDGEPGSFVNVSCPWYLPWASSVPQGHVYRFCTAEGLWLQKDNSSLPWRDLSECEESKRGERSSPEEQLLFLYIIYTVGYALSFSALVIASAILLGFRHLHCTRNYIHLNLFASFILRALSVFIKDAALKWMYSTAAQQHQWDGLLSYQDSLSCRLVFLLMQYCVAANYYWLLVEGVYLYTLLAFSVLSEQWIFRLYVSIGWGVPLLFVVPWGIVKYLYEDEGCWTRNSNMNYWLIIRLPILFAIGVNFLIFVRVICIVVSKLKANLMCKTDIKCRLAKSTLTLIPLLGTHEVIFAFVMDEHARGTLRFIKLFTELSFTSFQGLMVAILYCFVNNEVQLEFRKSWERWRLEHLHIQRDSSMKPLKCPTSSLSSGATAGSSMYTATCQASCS
- Method: GLP-1R Cell Assay 1: cAMP Hunter CHO-K1 GLP1R Gs cell line, HitHunter cAMP assay
- Assay type: cell-based
- Assay setup: Table 2; cAMP Hunter CHO-K1 GLP1R Gs cells; percent activity normalized to Exendin-4
pEC50: −log10 of the molar value.

Guide cases for pEC50, answers given:
INSERT INTO measurements (compound, value_measured) VALUES
  ('N#Cc1ccc(COc2cccc(C3CCN([C@H]4CCn5c4nc4ccc(C(=O)O)cc45)CC3)n2)c(F)c1 (single isomer, unassigned) [Compound 6-P2]', '< 6.30'),
  ('CS(=O)(=O)N1CCC(COc2cccc(N3CCN(Cc4nc5ccc(C(=O)O)cc5n4C[C@@H]4CCO4)CC3)n2)CC1', '< 6.30');

Read the next record carefully.
Ask | Given the compound CS(=O)(=O)N1CC(COc2cccc(N3CCN(Cc4nc5ccc(C(=O)O)cc5n4C[C@@H]4CCO4)CC3)n2)C1 , what is its reported pEC50?
Reply | < 6.30
